# SYSTEM: human FGFR2b (Homo sapiens, UniProt P21802)
# Sequence (P21802 22-822 isoform P21802-3 limits assumed): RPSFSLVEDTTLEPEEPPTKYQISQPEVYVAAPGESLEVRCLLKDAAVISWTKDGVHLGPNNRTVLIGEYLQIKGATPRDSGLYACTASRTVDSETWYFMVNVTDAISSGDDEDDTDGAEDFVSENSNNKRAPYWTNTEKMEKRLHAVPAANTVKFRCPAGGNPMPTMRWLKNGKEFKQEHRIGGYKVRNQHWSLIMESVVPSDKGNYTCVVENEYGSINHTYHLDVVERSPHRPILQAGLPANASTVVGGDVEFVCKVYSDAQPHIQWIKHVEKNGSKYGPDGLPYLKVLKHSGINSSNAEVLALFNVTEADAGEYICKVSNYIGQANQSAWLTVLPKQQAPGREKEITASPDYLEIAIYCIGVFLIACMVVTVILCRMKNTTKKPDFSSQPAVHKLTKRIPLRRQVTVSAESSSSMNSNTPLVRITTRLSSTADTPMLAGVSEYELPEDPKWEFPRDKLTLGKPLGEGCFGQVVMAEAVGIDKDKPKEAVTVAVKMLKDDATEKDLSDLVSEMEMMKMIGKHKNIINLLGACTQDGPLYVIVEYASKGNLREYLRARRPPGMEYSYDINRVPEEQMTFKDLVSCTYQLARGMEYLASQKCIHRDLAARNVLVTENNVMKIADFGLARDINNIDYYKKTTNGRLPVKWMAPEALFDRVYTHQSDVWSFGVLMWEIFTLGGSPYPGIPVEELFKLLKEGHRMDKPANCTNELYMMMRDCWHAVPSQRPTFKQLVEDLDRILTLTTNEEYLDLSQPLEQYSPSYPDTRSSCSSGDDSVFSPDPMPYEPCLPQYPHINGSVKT
# EXPERIMENT DESCRIPTION: SPR affinity determination, human FGFR2b (Example 9)
# Format: binding
Collected ka values appear next to each entry.
The response must be a number in M^−1S^−1 with no trailing unit.

// worked examples, ka included
>>> recorded_number("BGAm1823: parental murine anti-FGFR2b antibody; VH SEQ ID NO: 28, VL SEQ ID NO: 30 (antibody, V domains shown, Synthetic: VH AA; Synthetic: VL AA) VH: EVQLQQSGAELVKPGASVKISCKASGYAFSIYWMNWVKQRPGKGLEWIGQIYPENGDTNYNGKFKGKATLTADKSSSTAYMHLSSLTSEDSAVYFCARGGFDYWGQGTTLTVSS VL: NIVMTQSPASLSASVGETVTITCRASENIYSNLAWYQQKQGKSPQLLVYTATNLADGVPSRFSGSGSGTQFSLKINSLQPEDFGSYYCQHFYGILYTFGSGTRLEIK")
"7.63E+04"
>>> recorded_number("BGAh9179: humanized anti-FGFR2b IgG1 antibody from murine BGAm1371; VH SEQ ID NO: 21, VL SEQ ID NO: 22 (antibody, V domains shown, Synthetic: VH AA; Synthetic: VL AA) VH: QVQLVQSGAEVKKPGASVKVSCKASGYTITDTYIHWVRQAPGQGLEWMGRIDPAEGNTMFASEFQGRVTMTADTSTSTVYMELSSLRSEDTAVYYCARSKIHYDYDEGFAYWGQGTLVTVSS VL: DIVLTQSPDSLAVSLGERATINCRASESVDDYGYSFLHWYQQKPGQPPKLLIYRASNLESGVPDRFSGSGSGTDFTLTISSLQAEDVAVYYCQQSNQNPRTFGGGTKVEIK")
"8.16E+04"
>>> recorded_number("BGAh9239: humanized anti-FGFR2b IgG1 antibody from murine BGAm1823; VH SEQ ID NO: 9, VL SEQ ID NO: 10 (antibody, V domains shown, Synthetic: VH AA; Synthetic: VL AA) VH: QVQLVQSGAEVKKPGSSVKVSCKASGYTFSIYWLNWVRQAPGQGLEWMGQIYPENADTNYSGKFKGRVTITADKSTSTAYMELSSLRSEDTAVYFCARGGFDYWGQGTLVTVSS VL: DIQMTQSPSSLSASVGDRVTITCRASENIYSNLAWYQQKPGKAPKLLIYTATNLAEGVPSRFSGSGSGTDFTLTISSLQPEDFATYYCQHFYGILYTFGQGTRLEIK")
"8.05E+04"

Let us examine a further case.
// fetch ka given entry BGAm1371: parental murine anti-FGFR2b antibody (parental mouse clone); VH SEQ ID NO: 32, VL SEQ ID NO: 34 (antibody, V domains shown, Synthetic: VH AA; Synthetic: VL AA) VH: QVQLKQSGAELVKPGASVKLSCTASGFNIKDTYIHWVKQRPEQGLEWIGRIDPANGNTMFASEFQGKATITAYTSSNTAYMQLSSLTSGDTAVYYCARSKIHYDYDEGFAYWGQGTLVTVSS VL: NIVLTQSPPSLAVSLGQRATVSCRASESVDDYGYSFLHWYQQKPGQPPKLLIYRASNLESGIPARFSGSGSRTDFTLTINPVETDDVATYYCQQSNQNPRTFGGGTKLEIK
7.29E+04

Data provenance: patent US20250222125A1
